# Test system: Mycobacterium tuberculosis Erdman (autoluminescent)
# test method notes: FIC50 (Loewe) at 50% inhibition (log2); higher = more antagonistic
# experimental context: in vitro model: valerate; time point: terminal (~4-5 doublings, model-specific)
Use 0.7 as the dividing line for FIC50, with the line itself on the T side and lower values as F.

These recorded examples may help you get a feel for the data.
Incoming: Check this compound for FIC50 at or above 0.7: O=[N+]([O-])c1cn2c(n1)OC[C@@H](OCc1ccc(OC(F)(F)F)cc1)C2 [pretomanid] + CO[C@H]1/C=C/O[C@@]2(C)Oc3c(C)c(O)c4c(O)c(c(/C=N/N5CCN(C)CC5)c(O)c4c3C2=O)NC(=O)/C(C)=C\C=C\[C@H](C)[C@H](O)[C@@H](C)[C@@H](O)[C@@H](C)[C@H](OC(C)=O)[C@@H]1C [rifampicin]
Outgoing: F

Incoming: Check this compound for FIC50 at or above 0.7: CC(C)/N=c1\cc2n(-c3ccc(Cl)cc3)c3ccccc3nc-2cc1Nc1ccc(Cl)cc1 [clofazimine] + CO[C@H]1/C=C/O[C@@]2(C)Oc3c(C)c(O)c4c(O)c(c(/C=N/N5CCN(C)CC5)c(O)c4c3C2=O)NC(=O)/C(C)=C\C=C\[C@H](C)[C@H](O)[C@@H](C)[C@@H](O)[C@@H](C)[C@H](OC(C)=O)[C@@H]1C [rifampicin]
Outgoing: F

Incoming: Check this compound for FIC50 at or above 0.7: NC(=O)c1cnccn1 [pyrazinamide] + CO[C@H]1/C=C/O[C@@]2(C)Oc3c(C)c(O)c4c(O)c(c(/C=N/N5CCN(C6CCCC6)CC5)c(O)c4c3C2=O)NC(=O)/C(C)=C\C=C\[C@H](C)[C@H](O)[C@@H](C)[C@@H](O)[C@@H](C)[C@H](OC(C)=O)[C@@H]1C
Outgoing: T

Incoming: Check this compound for FIC50 at or above 0.7: CC[C@@H](CO)NCCN[C@@H](CC)CO [ethambutol] + CO[C@H]1/C=C/O[C@@]2(C)Oc3c(C)c(O)c4c(O)c(c(/C=N/N5CCN(C)CC5)c(O)c4c3C2=O)NC(=O)/C(C)=C\C=C\[C@H](C)[C@H](O)[C@@H](C)[C@@H](O)[C@@H](C)[C@H](OC(C)=O)[C@@H]1C [rifampicin]
Outgoing: F

Incoming: Check this compound for FIC50 at or above 0.7: COc1c(N2C[C@@H]3CCCN[C@@H]3C2)c(F)cc2c(=O)c(C(=O)O)cn(C3CC3)c12 [moxifloxacin] + NC(=O)c1cnccn1 [pyrazinamide]
Outgoing: F

***
Incoming: Check this compound for FIC50 at or above 0.7: COc1nc2ccc(Br)cc2cc1[C@@H](c1ccccc1)[C@@](O)(CCN(C)C)c1cccc2ccccc12 [bedaquiline] + NNC(=O)c1ccncc1 [isoniazid]
Outgoing: F

====

# Test system: Mycobacterium tuberculosis Erdman (autoluminescent)
# test method notes: FIC50 (Loewe) at 50% inhibition (log2); higher = more antagonistic
# experimental context: in vitro model: valerate; time point: constant (~7 days, model-specific)
Use 0.2 as the dividing line for FIC50, with the line itself on the Fulfilled side and lower values as Not fulfilled.

Incoming: Check this compound for FIC50 at or above 0.2: COc1nc2ccc(Br)cc2cc1[C@@H](c1ccccc1)[C@@](O)(CCN(C)C)c1cccc2ccccc12 [bedaquiline] + NC(=O)c1cnccn1 [pyrazinamide]
Outgoing: Fulfilled

Incoming: Check this compound for FIC50 at or above 0.2: CC(=O)NC[C@H]1CN(c2ccc(N3CCOCC3)c(F)c2)C(=O)O1 [linezolid] + CO[C@H]1/C=C/O[C@@]2(C)Oc3c(C)c(O)c4c(O)c(c(/C=N/N5CCN(C)CC5)c(O)c4c3C2=O)NC(=O)/C(C)=C\C=C\[C@H](C)[C@H](O)[C@@H](C)[C@@H](O)[C@@H](C)[C@H](OC(C)=O)[C@@H]1C [rifampicin]
Outgoing: Not fulfilled

***
Incoming: Check this compound for FIC50 at or above 0.2: NNC(=O)c1ccncc1 [isoniazid] + COc1c(N2C[C@@H]3CCCN[C@@H]3C2)c(F)cc2c(=O)c(C(=O)O)cn(C3CC3)c12 [moxifloxacin]
Outgoing: Fulfilled

Incoming: Check this compound for FIC50 at or above 0.2: COc1nc2ccc(Br)cc2cc1[C@@H](c1ccccc1)[C@@](O)(CCN(C)C)c1cccc2ccccc12 [bedaquiline] + CC[C@@H](CO)NCCN[C@@H](CC)CO [ethambutol]
Outgoing: Not fulfilled

Incoming: Check this compound for FIC50 at or above 0.2: COc1c(N2C[C@@H]3CCCN[C@@H]3C2)c(F)cc2c(=O)c(C(=O)O)cn(C3CC3)c12 [moxifloxacin] + O=[N+]([O-])c1cn2c(n1)OC[C@@H](OCc1ccc(OC(F)(F)F)cc1)C2
Outgoing: Not fulfilled

Incoming: Check this compound for FIC50 at or above 0.2: CC(=O)NC[C@H]1CN(c2ccc(N3CCOCC3)c(F)c2)C(=O)O1 [linezolid] + CO[C@H]1/C=C/O[C@@]2(C)Oc3c(C)c(O)c4c(O)c(c(/C=N/N5CCN(C6CCCC6)CC5)c(O)c4c3C2=O)NC(=O)/C(C)=C\C=C\[C@H](C)[C@H](O)[C@@H](C)[C@@H](O)[C@@H](C)[C@H](OC(C)=O)[C@@H]1C [rifapentine]
Outgoing: Not fulfilled

Incoming: Check this compound for FIC50 at or above 0.2: NNC(=O)c1ccncc1 [isoniazid] + CO[C@H]1/C=C/O[C@@]2(C)Oc3c(C)c(O)c4c(O)c(c(/C=N/N5CCN(C6CCCC6)CC5)c(O)c4c3C2=O)NC(=O)/C(C)=C\C=C\[C@H](C)[C@H](O)[C@@H](C)[C@@H](O)[C@@H](C)[C@H](OC(C)=O)[C@@H]1C [rifapentine]
Outgoing: Fulfilled

Incoming: Check this compound for FIC50 at or above 0.2: O=[N+]([O-])c1cn2c(n1)OC[C@@H](OCc1ccc(OC(F)(F)F)cc1)C2 [pretomanid] + CO[C@H]1/C=C/O[C@@]2(C)Oc3c(C)c(O)c4c(O)c(c(/C=N/N5CCN(C)CC5)c(O)c4c3C2=O)NC(=O)/C(C)=C\C=C\[C@H](C)[C@H](O)[C@@H](C)[C@@H](O)[C@@H](C)[C@H](OC(C)=O)[C@@H]1C
Outgoing: Not fulfilled

Incoming: Check this compound for FIC50 at or above 0.2: COc1nc2ccc(Br)cc2cc1[C@@H](c1ccccc1)[C@@](O)(CCN(C)C)c1cccc2ccccc12 [bedaquiline] + CO[C@H]1/C=C/O[C@@]2(C)Oc3c(C)c(O)c4c(O)c(c(/C=N/N5CCN(C)CC5)c(O)c4c3C2=O)NC(=O)/C(C)=C\C=C\[C@H](C)[C@H](O)[C@@H](C)[C@@H](O)[C@@H](C)[C@H](OC(C)=O)[C@@H]1C [rifampicin]
Outgoing: Fulfilled

====

Would you mind telling me the reported Einf of each entry?
# Tested on: Mycobacterium tuberculosis Erdman (autoluminescent)
# test method notes: Einf, fitted maximum growth inhibition of three-drug combination (fraction); higher = stronger maximal inhibition
# experimental context: in vitro model: intracellular J774; time point: constant = terminal
Give bare numbers.

Incoming: Which Einf reading was recorded for the molecule NNC(=O)c1ccncc1 [isoniazid] + CC(=O)NC[C@H]1CN(c2ccc(N3CCOCC3)c(F)c2)C(=O)O1 [linezolid] + O=[N+]([O-])c1cn2c(n1)OC[C@@H](OCc1ccc(OC(F)(F)F)cc1)C2 [pretomanid] ?
Outgoing: 0.984

Incoming: Which Einf reading was recorded for the molecule NNC(=O)c1ccncc1 [isoniazid] + CC(=O)NC[C@H]1CN(c2ccc(N3CCOCC3)c(F)c2)C(=O)O1 [linezolid] + NC(=O)c1cnccn1 [pyrazinamide] ?
Outgoing: 0.956

Now for a further molecule.
Incoming: Which Einf reading was recorded for the molecule NNC(=O)c1ccncc1 [isoniazid] + COc1c(N2C[C@@H]3CCCN[C@@H]3C2)c(F)cc2c(=O)c(C(=O)O)cn(C3CC3)c12 [moxifloxacin] + CO[C@H]1/C=C/O[C@@]2(C)Oc3c(C)c(O)c4c(O)c(c(/C=N/N5CCN(C)CC5)c(O)c4c3C2=O)NC(=O)/C(C)=C\C=C\[C@H](C)[C@H](O)[C@@H](C)[C@@H](O)[C@@H](C)[C@H](OC(C)=O)[C@@H]1C [rifampicin] ?
Outgoing: 0.969

====

# Tested on: Mycobacterium tuberculosis Erdman (autoluminescent)
# test method notes: FIC50 (Loewe) at 50% inhibition (log2); higher = more antagonistic
# experimental context: in vitro model: cholesterol 0.05 mM; time point: constant (~7 days, model-specific)
Would you mind telling me the reported FIC50 of each entry?
Answers are plain numbers.

Some entries whose results are on file:
Incoming: Which FIC50 reading was recorded for the compound CC[C@@H](CO)NCCN[C@@H](CC)CO [ethambutol] + NNC(=O)c1ccncc1 [isoniazid] ?
Outgoing: 0.389

Incoming: Which FIC50 reading was recorded for the compound CC(C)/N=c1\cc2n(-c3ccc(Cl)cc3)c3ccccc3nc-2cc1Nc1ccc(Cl)cc1 [clofazimine] + CC(=O)NC[C@H]1CN(c2ccc(N3CCOCC3)c(F)c2)C(=O)O1 [linezolid] ?
Outgoing: -0.262

Incoming: Which FIC50 reading was recorded for the compound O=[N+]([O-])c1cn2c(n1)OC[C@@H](OCc1ccc(OC(F)(F)F)cc1)C2 [pretomanid] + CO[C@H]1/C=C/O[C@@]2(C)Oc3c(C)c(O)c4c(O)c(c(/C=N/N5CCN(C6CCCC6)CC5)c(O)c4c3C2=O)NC(=O)/C(C)=C\C=C\[C@H](C)[C@H](O)[C@@H](C)[C@@H](O)[C@@H](C)[C@H](OC(C)=O)[C@@H]1C [rifapentine] ?
Outgoing: 0.253

// for each compound below, give its FIC50
1. O=[N+]([O-])c1cn2c(n1)OC[C@@H](OCc1ccc(OC(F)(F)F)cc1)C2 [pretomanid] + CO[C@H]1/C=C/O[C@@]2(C)Oc3c(C)c(O)c4c(O)c(c(/C=N/N5CCN(C)CC5)c(O)c4c3C2=O)NC(=O)/C(C)=C\C=C\[C@H](C)[C@H](O)[C@@H](C)[C@@H](O)[C@@H](C)[C@H](OC(C)=O)[C@@H]1C [rifampicin]
2. COc1c(N2C[C@@H]3CCCN[C@@H]3C2)c(F)cc2c(=O)c(C(=O)O)cn(C3CC3)c12 [moxifloxacin] + CO[C@H]1/C=C/O[C@@]2(C)Oc3c(C)c(O)c4c(O)c(c(/C=N/N5CCN(C)CC5)c(O)c4c3C2=O)NC(=O)/C(C)=C\C=C\[C@H](C)[C@H](O)[C@@H](C)[C@@H](O)[C@@H](C)[C@H](OC(C)=O)[C@@H]1C
3. CC[C@@H](CO)NCCN[C@@H](CC)CO [ethambutol] + CO[C@H]1/C=C/O[C@@]2(C)Oc3c(C)c(O)c4c(O)c(c(/C=N/N5CCN(C)CC5)c(O)c4c3C2=O)NC(=O)/C(C)=C\C=C\[C@H](C)[C@H](O)[C@@H](C)[C@@H](O)[C@@H](C)[C@H](OC(C)=O)[C@@H]1C [rifampicin]
4. CC(C)/N=c1\cc2n(-c3ccc(Cl)cc3)c3ccccc3nc-2cc1Nc1ccc(Cl)cc1 [clofazimine] + CO[C@H]1/C=C/O[C@@]2(C)Oc3c(C)c(O)c4c(O)c(c(/C=N/N5CCN(C)CC5)c(O)c4c3C2=O)NC(=O)/C(C)=C\C=C\[C@H](C)[C@H](O)[C@@H](C)[C@@H](O)[C@@H](C)[C@H](OC(C)=O)[C@@H]1C [rifampicin]
5. CC[C@@H](CO)NCCN[C@@H](CC)CO [ethambutol] + CO[C@H]1/C=C/O[C@@]2(C)Oc3c(C)c(O)c4c(O)c(c(/C=N/N5CCN(C6CCCC6)CC5)c(O)c4c3C2=O)NC(=O)/C(C)=C\C=C\[C@H](C)[C@H](O)[C@@H](C)[C@@H](O)[C@@H](C)[C@H](OC(C)=O)[C@@H]1C [rifapentine]
6. CC[C@@H](CO)NCCN[C@@H](CC)CO [ethambutol] + CC(=O)NC[C@H]1CN(c2ccc(N3CCOCC3)c(F)c2)C(=O)O1 [linezolid]

Outgoing:
[0.468, 0.744, -0.298, 0.4, 0.509, 0.049]

// for each compound below, give its FIC50
1. COc1nc2ccc(Br)cc2cc1[C@@H](c1ccccc1)[C@@](O)(CCN(C)C)c1cccc2ccccc12 [bedaquiline] + CO[C@H]1/C=C/O[C@@]2(C)Oc3c(C)c(O)c4c(O)c(c(/C=N/N5CCN(C6CCCC6)CC5)c(O)c4c3C2=O)NC(=O)/C(C)=C\C=C\[C@H](C)[C@H](O)[C@@H](C)[C@@H](O)[C@@H](C)[C@H](OC(C)=O)[C@@H]1C [rifapentine]
2. COc1nc2ccc(Br)cc2cc1[C@@H](c1ccccc1)[C@@](O)(CCN(C)C)c1cccc2ccccc12 [bedaquiline] + CC(=O)NC[C@H]1CN(c2ccc(N3CCOCC3)c(F)c2)C(=O)O1 [linezolid]

Outgoing:
[0.249, 0.123]
